# Test Method Notes: Selectivity ratio of IC50 for cytotoxicity against human MRC5 cells assessed as inhibition of cell growth to MIC for antibacterial activity against methicillin-resistant Staphylococcus aureus NMI 1991 K assessed as inhibition of microbial growth by broth-microdilution method
# Assay type: toxicity, cell-based
Test Readout: selectivity ratio
// return just the number, without any unit appended

## Input For the compound "C[Si]1(C)OB(O)c2ccc(SC(=O)c3ccc(C(F)(F)F)cc3)c(F)c21" , what selectivity ratio is on record?
## Output 4.5

## Input Param item = "C[Si]1(C)OB(O)c2cc(F)c(SCCC#N)c(F)c21" ; retrieve measured selectivity ratio.
## Output 11.2

## Input Please report the recorded selectivity ratio for "C[Si]1(C)OB(O)c2cc(F)c(SCCS(=O)(=O)c3ccccc3)c(F)c21" .
## Output 19.5

## Input GET /values?readout=selectivity ratio&item= "C[Si]1(C)OB(O)c2ccc(SCC(=O)c3ccccc3)c(F)c21"
## Output 80.8

## Input Quick check: selectivity ratio of C[Si]1(C)OB(O)c2cc(F)c(SC3CC(=O)NC3=O)c(F)c21 (configuration not stated) ?
## Output 13.4

* * *

# Test Method Notes: Selectivity ratio of IC50 for cytotoxicity against human MRC5 cells assessed as inhibition of cell growth to MIC for antibacterial activity against methicillin-resistant Staphylococcus aureus ATCC 43300 assessed as inhibition of microbial growth
# Assay type: toxicity, cell-based
Field: selectivity ratio. Provide a value for each of the compounds that follow.
Answer as a number with no unit attached.

## Input Tell me the measured selectivity ratio of C[Si]1(C)OB(O)c2cc(F)c(SC3CC(=O)N(c4ccc(F)cc4)C3=O)c(F)c21 (stereo not drawn) , please.
## Output 2.7

## Input Which measured selectivity ratio value corresponds to C[Si]1(C)OB(O)c2ccc(SC3CC(=O)N(c4ccc(Br)c(C(F)(F)F)c4)C3=O)c(F)c21 (stereo not drawn) ?
## Output 5.6

## Input State the recorded selectivity ratio for this entry: C[Si]1(C)OB(O)c2cc(F)c(SC3CC(=O)NC3=O)c(F)c21 (stereo not drawn)
## Output 13.4

## Input Entry under review: "C[Si]1(C)OB(O)c2cc(F)c(SCCS(=O)(=O)c3ccccc3)c(F)c21" . Reported selectivity ratio?
## Output 19.5

## Input Suppose we examine the compound C[Si]1(C)OB(O)c2ccc(SC3CC(=O)N(c4ccc(F)cc4)C3=O)c(F)c21 (stereo not drawn) ; what selectivity ratio value has been reported?
## Output 5.8

## Input Entry "C[Si]1(C)OB(O)c2cc(F)c(SCCC#N)c(F)c21" has what selectivity ratio?
## Output 11.2

* * *

# Tested on: Enterococcus faecalis
# Test Method Notes: Antibacterial activity against Enterococcus faecalis ATCC 29212 assessed as diameter of inhibition zone by CLSI based disc-diffusion method
# Type: functional
Test Readout: diameter of the inhibition zone (DIZ) (mm)
Record the value in mm, omitting the unit from your answer.

## Input Report diameter of the inhibition zone (DIZ) for "CC(=O)CCSc1c(F)cc2c(c1F)[Si](C)(C)OB2O" tested on Enterococcus faecalis.
## Output 19

## Input Test system Enterococcus faecalis; read-out diameter of the inhibition zone (DIZ); what value for "C[Si]1(C)OB(O)c2ccc(SCCS(=O)(=O)c3ccccc3)c(F)c21" ?
## Output 15

## Input State its diameter of the inhibition zone (DIZ) on Enterococcus faecalis: "C[Si]1(C)OB(O)c2cc(F)c(SCCS(=O)(=O)c3ccccc3)c(F)c21"
## Output 14

## Input Requested read-out diameter of the inhibition zone (DIZ), target or system Enterococcus faecalis, entry "C[Si]1(C)OB(O)c2cc(F)c(SCCC(=O)Nc3ncccn3)c(F)c21"
## Output 13
